B1: Caulobacter ParB omega fusion; a variant is named by its letters at X, in order, B8GW30 (parent)
chain: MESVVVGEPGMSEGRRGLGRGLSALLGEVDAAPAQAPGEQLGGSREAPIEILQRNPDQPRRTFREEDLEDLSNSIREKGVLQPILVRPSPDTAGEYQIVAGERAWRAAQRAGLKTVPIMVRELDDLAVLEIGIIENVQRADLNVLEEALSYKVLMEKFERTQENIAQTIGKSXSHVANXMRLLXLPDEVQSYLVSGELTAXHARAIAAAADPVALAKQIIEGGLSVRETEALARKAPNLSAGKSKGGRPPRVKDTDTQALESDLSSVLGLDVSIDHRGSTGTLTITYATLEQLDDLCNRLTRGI

- Variants of: B1
- method_summary: one-hybrid fitness for binding parS DNA (scaled: cognate 1, non-cognate 0); higher = stronger binding
- conditions_used: with parS DNA site
Whole data set: some 81,000 sequences, median “one-hybrid fitness for binding parS DNA” near -0.17, cut for the highest 2% near 0.51. Shown is part of a subset that was picked to be rich in the highest values.
measured_property: one-hybrid fitness for binding parS DNA

GNCC	≤ 0.2
NMLA	≤ 0.2
RGHN	≤ 0.2
RGGD	≤ 0.2
RNLQ	≤ 0.2
RIYH	≤ 0.2
VSSM	≤ 0.2
WKDS	≤ 0.2

Here's the next entry for you.
Query :: Can you share its one-hybrid fitness for binding parS DNA? I mean this variant: RGGG
Result :: 0.64
